Experiment: Aqueous solubility
Assay type: physicochemical
Conditions: buffer pH 2.2, 24 h shaking, 2.5% DMSO
endpoint: Solubility at pH value 2.2 (μg/mL)

| compound | reportedMeasurement |
| --- | --- |
| N#CC1(c2ccccc2-c2ccc(F)c3c2CC[C@H]3Nc2ccc([C@H]3C[C@@H]3C(=O)O)nc2)CC1 (mixture of isomers) | 110 |
| Cc1cc(CO)cc(C)c1-c1ccc(F)c2c1CC[C@H]2Nc1ccc([C@H]2C[C@@H]2C(=O)O)nc1 | 105 |
| Cc1cc(OCC(C)(C)O)cc(C)c1-c1ccc(F)c2c1CC[C@H]2Nc1ccc([C@H]2C[C@@H]2C(=O)O)nc1 | 111 |
| O=C(O)[C@H]1C[C@@H]1c1ccc(N[C@@H]2CCc3c(-c4ccccc4C(F)(F)F)ccc(F)c32)cn1 | 87 |
| Cc1cc(O[C@H]2CCOC2)cc(C)c1-c1ccc(F)c2c1CC[C@H]2Nc1ccc([C@H]2C[C@@H]2C(=O)O)nc1 (mixture of isomers) | 103 |
| Cc1cc(OCC2CCOCC2)cc(C)c1-c1ccc(F)c2c1CC[C@H]2Nc1ccc([C@H]2C[C@@H]2C(=O)O)nc1 | 90 |
| Cc1cc(-c2ccn(C)c(=O)c2)cc(C)c1-c1ccc(F)c2c1CC[C@H]2Nc1ccc([C@H]2C[C@@H]2C(=O)O)nc1 | 117 |
| Cc1cc(OCC(C)(C)C#N)cc(C)c1-c1ccc(F)c2c1CC[C@H]2Nc1ccc([C@H]2C[C@@H]2C(=O)O)nc1 | 64 |
| Cc1cc(-c2ccnn2C)cc(C)c1-c1ccc(F)c2c1CC[C@H]2Nc1ccc([C@H]2C[C@@H]2C(=O)O)nc1 | 95 |
| Cc1cc(OCC(=O)O)cc(C)c1-c1ccc(F)c2c1CC[C@H]2Nc1ccc([C@H]2C[C@@H]2C(=O)O)nc1 | 96 |
| COc1cc(-c2cc(C)c(-c3ccc(F)c4c3CC[C@H]4Nc3ccc([C@H]4C[C@@H]4C(=O)O)nc3)c(C)c2)ccn1 | 106 |
| Cc1cc(OC2CCOCC2)cc(C)c1-c1ccc(F)c2c1CC[C@H]2Nc1ccc([C@H]2C[C@@H]2C(=O)O)nc1 | 106 |
| Cc1cc(-c2nnn(CC(C)(C)O)n2)cc(C)c1-c1ccc(F)c2c1CC[C@H]2Nc1ccc([C@H]2C[C@@H]2C(=O)O)nc1 | 113 |
| Cc1cc(C(=O)N(C)C)cc(C)c1-c1ccc(F)c2c1CC[C@H]2Nc1ccc([C@H]2C[C@@H]2C(=O)O)nc1 | 118 |

Data provenance: patent US10125101B2
